system-name: Human PDE10A enzyme (Homo sapiens, UniProt Q9Y233)
Construct: transfected with the full-length gene; His-tag; made in house; host or cells: Sf9 or COS-7 cells
Sequence (Q9Y233 267-1055): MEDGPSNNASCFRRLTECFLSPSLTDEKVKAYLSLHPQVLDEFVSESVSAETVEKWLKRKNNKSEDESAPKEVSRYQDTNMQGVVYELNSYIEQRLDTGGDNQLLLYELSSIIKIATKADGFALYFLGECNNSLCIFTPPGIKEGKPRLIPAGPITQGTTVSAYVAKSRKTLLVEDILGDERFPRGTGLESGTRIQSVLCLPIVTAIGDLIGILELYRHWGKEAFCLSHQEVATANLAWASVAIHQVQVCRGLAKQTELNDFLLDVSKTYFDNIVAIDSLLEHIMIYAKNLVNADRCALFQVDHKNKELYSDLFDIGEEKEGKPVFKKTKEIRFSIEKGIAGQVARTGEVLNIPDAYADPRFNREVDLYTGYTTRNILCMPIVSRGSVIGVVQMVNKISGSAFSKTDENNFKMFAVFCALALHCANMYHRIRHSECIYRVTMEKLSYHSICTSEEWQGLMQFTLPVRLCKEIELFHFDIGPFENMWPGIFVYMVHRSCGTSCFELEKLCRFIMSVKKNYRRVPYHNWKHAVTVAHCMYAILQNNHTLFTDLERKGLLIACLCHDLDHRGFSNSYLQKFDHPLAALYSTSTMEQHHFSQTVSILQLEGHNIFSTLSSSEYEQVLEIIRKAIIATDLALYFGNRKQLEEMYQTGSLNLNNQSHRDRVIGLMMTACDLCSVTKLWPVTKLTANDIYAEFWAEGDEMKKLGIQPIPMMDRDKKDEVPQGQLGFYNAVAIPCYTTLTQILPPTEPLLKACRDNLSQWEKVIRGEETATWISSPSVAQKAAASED
measurement-notes: PDE enzyme inhibition, SPA (Scintillation Proximity Assay) with [3H]cGMP
Type: biochemical
experimental-parameters: compound 1 μM, [3H]cGMP substrate, read-out: Percent inhibition (1 μM)
// reported inhibition at 1 µM per item

>  <structure-smiles>
CCn1c(=O)n(-c2ccc(Oc3nc4ncccc4n3C)cc2)c2ncccc21

>  <unit-spec>
%

>  <inhibition at 1 µM>
95

$$$$
>  <structure-smiles>
Cn1c(Oc2ccc(-n3c(=O)n(C(F)F)c4cccnc43)cc2)nc2ccccc21

>  <unit-spec>
%

>  <inhibition at 1 µM>
99

$$$$
>  <structure-smiles>
CCn1c(=O)n(-c2ccc(Oc3nc4ccccc4n3C)cc2)c2ncc(C#N)cc21

>  <unit-spec>
%

>  <inhibition at 1 µM>
99

$$$$
>  <structure-smiles>
CCn1c(=O)n(-c2ccc(Oc3nc4cccnc4n3C)cc2)c2ncc(OC)cc21

>  <unit-spec>
%

>  <inhibition at 1 µM>
99

$$$$
>  <structure-smiles>
CCn1c(=O)n(-c2ccc(Oc3nc4cccnc4n3C)cc2)c2ncc(OC(F)F)cc21

>  <unit-spec>
%

>  <inhibition at 1 µM>
101

$$$$
>  <structure-smiles>
Cn1c(Oc2ccc(-n3c(=O)n(C4CC4)c4cccnc43)cc2)nc2ccccc21

>  <unit-spec>
%

>  <inhibition at 1 µM>
101

$$$$
>  <structure-smiles>
CCn1c(=O)n(-c2ccc(Oc3nc4cccnc4[nH]3)cc2)c2ncccc21

>  <unit-spec>
%

>  <inhibition at 1 µM>
98

$$$$
>  <structure-smiles>
CCn1c(=O)n(-c2ccc(Oc3nc4ccccc4n3C)cc2)c2ncc(F)cc21

>  <unit-spec>
%

>  <inhibition at 1 µM>
104

$$$$

* * *

readout-kind: melting point

>  <structure-smiles>
CCn1c(=O)n(-c2ccc(N3CCn4c3nc3cccnc34)cc2)c2ncccc21

>  <readout-kind>
melting point

>  <observed-value>
255 to 256 °C

$$$$
>  <structure-smiles>
CCn1c(=O)n(-c2ccc(Oc3nc4cccnc4n3C)cc2)c2nccc(C(F)(F)F)c21

>  <readout-kind>
melting point

>  <observed-value>
244 to 246 °C

$$$$
>  <structure-smiles>
CCn1c(=O)n(-c2ccc(Oc3nc4cccnc4n3C)cc2)c2ncc(OC)cc21

>  <readout-kind>
melting point

>  <observed-value>
197 to 198 °C

$$$$
>  <structure-smiles>
Cc1ccnc2c1n(C(C)C)c(=O)n2-c1ccc(Oc2nc3cccnc3n2C)cc1

>  <readout-kind>
melting point

>  <observed-value>
270 to 271 °C

$$$$
>  <structure-smiles>
CCn1c(=O)n(-c2ccc(Oc3nc4ccccc4n3C)cc2)c2ncccc21

>  <readout-kind>
melting point

>  <observed-value>
184 to 186 °C

$$$$
>  <structure-smiles>
CCn1c(=O)n(-c2ccc(Oc3nc4cccnc4n3C)cc2)c2ncc(C)cc21

>  <readout-kind>
melting point

>  <observed-value>
217 to 219 °C

$$$$
>  <structure-smiles>
CCn1c(=O)n(-c2ccc(Oc3nc4cccnc4n3C)cc2)c2ncc(OC(F)F)cc21

>  <readout-kind>
melting point

>  <observed-value>
195 to 197 °C

$$$$
>  <structure-smiles>
CCn1c(=O)n(-c2ccc(-n3ccn4c5ccccc5nc34)cc2)c2ncccc21

>  <readout-kind>
melting point

>  <observed-value>
220 to 221 °C

$$$$
>  <structure-smiles>
CCn1c(=O)n(-c2ccc(Oc3nc4cccnc4n3C)cc2)c2ncc(OCC(F)(F)F)cc21

>  <readout-kind>
melting point

>  <observed-value>
178 to 179 °C

$$$$
>  <structure-smiles>
CCn1c(=O)n(-c2ccc(Oc3nc4cccnc4n3C)cc2)c2ncc(OCC(F)F)cc21

>  <readout-kind>
melting point

>  <observed-value>
171 to 172 °C

$$$$
>  <structure-smiles>
CCn1c(=O)n(-c2ccc(Oc3nc4ccccc4n3C)cc2)c2ncc(Cl)cc21

>  <readout-kind>
melting point

>  <observed-value>
208 to 210 °C

$$$$
>  <structure-smiles>
Cc1cnc2c(c1)n(C(C)C)c(=O)n2-c1ccc(Oc2nc3cccnc3n2C)cc1

>  <readout-kind>
melting point

>  <observed-value>
252 °C

$$$$
>  <structure-smiles>
CCn1c(=O)n(-c2ccc(Oc3nc4ccccc4n3C)cc2)c2ncncc21

>  <readout-kind>
melting point

>  <observed-value>
242 to 243 °C

$$$$

* * *

Recorded inhibition at 0.1 µM values for a group of compounds are listed next.
system-name: Human PDE10A enzyme (Homo sapiens, UniProt Q9Y233)
Construct: transfected with the full-length gene; His-tag; made in house; host or cells: Sf9 or COS-7 cells
measurement-notes: PDE enzyme inhibition, SPA (Scintillation Proximity Assay) with [3H]cGMP
Assay type: biochemical
experimental-parameters: compound 0.1 μM, [3H]cGMP substrate, read-out: Percent inhibition (0.1 μM)
Structures can show the parent of a compound that is named as a salt.

>  <compound>
CCn1c(=O)n(-c2ccc(N3CCn4c3nc3ccccc34)cc2)c2ncccc21

>  <inhibition at 0.1 µM [%]>
98

$$$$
>  <compound>
CCn1c(=O)n(-c2ccc(Nc3nc4ccc(F)cc4o3)cc2)c2ncccc21

>  <inhibition at 0.1 µM [%]>
102

$$$$
>  <compound>
Cn1c(=O)n(-c2ccc(N3CCn4c3nc3ccccc34)cc2)c2ncccc21

>  <inhibition at 0.1 µM [%]>
99

$$$$
>  <compound>
CCn1c(=O)n(-c2ccc(Oc3nc4ccccc4[nH]3)cc2)c2ncccc21 [Example 8, hydrochloride]

>  <inhibition at 0.1 µM [%]>
98

$$$$

* * *

Measured inhibition at 10 µM of individual entries
system-name: Human PDE10A enzyme (Homo sapiens, UniProt Q9Y233)
Construct: transfected with the full-length gene; His-tag; made in house; host or cells: Sf9 or COS-7 cells
measurement-notes: PDE enzyme inhibition, SPA (Scintillation Proximity Assay) with [3H]cGMP
Assay type: biochemical
experimental-parameters: compound 10 μM, [3H]cGMP substrate, read-out: Percent inhibition (10 μM)
Counter-ions that a name gives are not always drawn.

>  <molecule>
Cn1c(Oc2ccc(-n3c(=O)n(C4CC4)c4cccnc43)cc2)nc2cccnc21

>  <unit-spec>
%

>  <inhibition at 10 µM>
105

$$$$
>  <molecule>
CCn1c(=O)n(-c2ccc(Oc3nc4c(n3C)CCCC4)cc2)c2ncccc21

>  <unit-spec>
%

>  <inhibition at 10 µM>
98

$$$$
>  <molecule>
CCn1c(=O)n(-c2ccc(Oc3nc4cccnc4n3C)cc2)c2ncc(C#N)cc21

>  <unit-spec>
%

>  <inhibition at 10 µM>
102

$$$$
>  <molecule>
CC1(C)C(=O)N(c2ccc(Oc3nc4ccccc4[nH]3)cc2)c2ncccc21 [Example 9, dihydrochloride]

>  <unit-spec>
%

>  <inhibition at 10 µM>
99

$$$$
